Values from patent US20230131339A1

System: CXCL12-induced ERK signaling
Assay: ERK/AKT signaling assay in SupT1 cells: ERK phosphorylation
Format: cell-based
Settings: 1 μM
Where a SMILES comes first, the peptide text is derived from it.
property-name: reduction of CXCL12-induced ERK signaling

[[record]]
compound = "CCCCCCCCCCCCCCCC(=O)N[C@@H](CCC(=O)NCCCC[C@H](NC(=O)[C@H](CCCNC(=N)N)NC(=O)[C@H](CO)NC(=O)[C@H](Cc1c[nH]c2ccccc12)NC(=O)[C@H](CCCNC(=N)N)NC(=O)[C@H](CC(C)C)NC(=O)[C@@H](N)[C@@H](C)CC)C(=O)N[C@@H](CC(C)C)C(=O)N1CCC[C@H]1C(=O)N[C@@H](CS)C(=O)N[C@H](C(=O)N[C@@H](CO)C(=O)O)C(C)C)C(=O)O"
observed_result = "~70%"

[[record]]
compound = "CC[C@H](C)[C@H](N)C(=O)N[C@H](C(=O)N[C@@H](CCCNC(=N)N)C(=O)N[C@@H](Cc1c[nH]c2ccccc12)C(=O)N[C@@H](CO)C(=O)N[C@@H](CCCCN)C(=O)N[C@@H](CCCCN)C(=O)N[C@H](C(=O)N1CCC[C@H]1C(=O)N[C@@H](CS)C(=O)N[C@H](C(=O)N[C@@H](CO)C(=O)O)C(C)C)C(C)C)C(C)C [WSC02, reference compound] (H-IVRWSKKVPCVS-OH; C-terminus assumed)"
observed_result = "20%"


Q. For `CC[C@H](C)[C@H](N)C(=O)N[C@@H](CC(C)C)C(=O)N[C@@H](CCCNC(=N)N)C(=O)N[C@@H](Cc1c[nH]c2ccccc12)C(=O)N[C@@H](CO)C(=O)N[C@@H](CCCNC(=N)N)C(=O)N[C@@H](CCCCN)C(=O)N[C@@H](CC(C)C)C(=O)N1CCC[C@H]1C(=O)N[C@@H](CS)C(=O)N[C@H](C(=O)N[C@@H](CO)C(=O)O)C(C)C` , what is its reported reduction of CXCL12-induced ERK signaling?
A. 60%

* * *

Assay: Stability of radiolabeled conjugates in buffer (radiochemical purity over time)
Type: physicochemical
Details: NH4-acetate buffer pH 5.2, ethanol, room temperature, time point 4 h
Where no end group is shown, it is not given here. [ ]: non-standard residue; d: D form. The star is where a group is joined. DOTA = O=C(O)CN1CCN(CC(=O)O)CCN(CC(=O)*)CCN(CC(=O)O)CC1
property-name: Radiochemical purity (%)
Write the answer as a number in %, unit excluded.

[[record]]
substance = "[^177Lu]Lu-DOTA-K-JM#21: ^177Lu-labeled DOTA-K-JM #21 (SEQ ID NO.: 101) (ILRWSRKLPCVSK(DOTA); also: 177Lu chelated)"
property_name = "Radiochemical purity"
readout_unit = "%"
observed_result = 90

[[record]]
substance = "[^177Lu]Lu-DOTA-K-JM#122: ^177Lu-labeled DOTA-K-JM #122 (SEQ ID NO.: 102) (ILRWSRKLPSVSK(DOTA); also: 177Lu complex of DOTA)"
property_name = "Radiochemical purity"
readout_unit = "%"
observed_result = 96

[[record]]
substance = "[^177Lu]Lu-DOTA-K-JM#29: ^177Lu-labeled DOTA-K-JM #29 (SEQ ID NO.: 165) ([dL]LRWSRKMPCVSK(DOTA); also: 177Lu complex of DOTA)"
property_name = "Radiochemical purity"
readout_unit = "%"
observed_result = 90


Next, consider the following substance.
Q. GET /values?readout=Radiochemical purity&item= [^177Lu]Lu-DOTA-JM#118: ^177Lu-labeled DOTA-JM #118 (SEQ ID NO.: 166) (ILRWSRK(DOTA)-NH2; also: 177Lu complex of DOTA)
A. 95

* * *

Test: Functional stability assay in human plasma
Settings: human plasma, 8 hours
Where a SMILES comes first, the peptide text is derived from it. [ ]: non-standard residue; d: D form.
property-name: remaining (relative) activity after 8 hours of plasma incubation (%)
The response must be a number in % with no trailing unit.

[[record]]
compound = "CC[C@@H](C)[C@@H](N)C(=O)N[C@@H](CC(C)C)C(=O)N[C@@H](CCCNC(=N)N)C(=O)N[C@@H](Cc1c[nH]c2ccccc12)C(=O)N[C@@H](CO)C(=O)N[C@@H](CCCNC(=N)N)C(=O)N[C@@H](CCCCN)C(=O)N[C@@H](CC(C)C)C(=O)N1CCC[C@H]1C(N)=O [JM #174] (H-[dI]LRWSRKLP-NH2)"
readout_unit = "%"
observed_result = 100

[[record]]
compound = "CSCC[C@H](NC(=O)[C@H](N)CC(C)C)C(=O)N[C@@H](CCCNC(=N)N)C(=O)N[C@@H](Cc1c[nH]c2ccccc12)C(=O)N[C@@H](CO)C(=O)N[C@@H](CCCNC(=N)N)C(=O)N[C@@H](CCCCN)C(=O)N[C@@H](CCSC)C(=O)N1CCC[C@H]1C(=O)N[C@@H](CS)C(=O)N[C@H](C(=O)N[C@@H](CO)C(=O)O)C(C)C [JM #36] (H-[dL]MRWSRKMPCVS-OH; C-terminus assumed)"
readout_unit = "%"
observed_result = 81

[[record]]
compound = "CC[C@@H](C)[C@@H](N)C(=O)N[C@@H](CC(C)C)C(=O)N[C@@H](CCCNC(=N)N)C(=O)N[C@@H](Cc1c[nH]c2ccccc12)C(=O)N[C@@H](CO)C(=O)N[C@@H](CCCNC(=N)N)C(=O)N[C@@H](CCCCN)C(N)=O [JM #173, d-ILRWSRK-NH2] (H-[dI]LRWSRK-NH2)"
readout_unit = "%"
observed_result = 100


Please look at the following compound next.
Q. remaining (relative) activity after 8 hours of plasma incubation for CSCC[C@@H](N)C(=O)N[C@@H](CC(C)C)C(=O)N[C@@H](CCCNC(=N)N)C(=O)N[C@@H](Cc1c[nH]c2ccccc12)C(=O)N[C@@H](CO)C(=O)N[C@@H](CCCNC(=N)N)C(=O)N[C@@H](CCCCN)C(=O)N[C@@H](CCSC)C(=O)N1CCC[C@H]1C(=O)N[C@@H](CS)C(=O)N[C@H](C(=O)N[C@@H](CO)C(=O)O)C(C)C [JM #28] (H-[dM]LRWSRKMPCVS-OH; C-terminus assumed) ?
A. 77

* * *

Test system: CXCL12-induced AKT signaling
Experiment: ERK/AKT signaling assay in SupT1 cells: AKT phosphorylation
Assay type: cell-based
Conditions: 1 μM
Protocol: Third, the activity of the claimed EPI-X4 derivatives was tested by the effect on CXCL12/CXCR4-mediated ERK (Extracellular-signal Regulated Kinases) and AKT (a serine/threonine-protein kinase) signaling (FIG. 3). […] ERK/AKT signaling assay. CXCL12 induced ERK and AKT phosphorylation was determined in SupT1 cells. […] Cells were washed afterwards and subsequently analyzed by flow cytometry.
Where a SMILES comes first, the peptide text is derived from it.
property-name: reduction of CXCL12-induced AKT signaling

[[record]]
compound = "CCCCCCCCCCCCCCCC(=O)N[C@@H](CCC(=O)NCCCC[C@H](NC(=O)[C@H](CCCNC(=N)N)NC(=O)[C@H](CO)NC(=O)[C@H](Cc1c[nH]c2ccccc12)NC(=O)[C@H](CCCNC(=N)N)NC(=O)[C@H](CC(C)C)NC(=O)[C@@H](N)[C@@H](C)CC)C(=O)N[C@@H](CC(C)C)C(=O)N1CCC[C@H]1C(=O)N[C@@H](CS)C(=O)N[C@H](C(=O)N[C@@H](CO)C(=O)O)C(C)C)C(=O)O"
observed_result = "~70%"


Attention now shifts to the item below.
Q. // lookup reduction of CXCL12-induced AKT signaling | system=CXCL12-induced AKT signaling | key= CC[C@H](C)[C@H](N)C(=O)N[C@@H](CC(C)C)C(=O)N[C@@H](CCCNC(=N)N)C(=O)N[C@@H](Cc1c[nH]c2ccccc12)C(=O)N[C@@H](CO)C(=O)N[C@@H](CCCNC(=N)N)C(=O)N[C@@H](CCCCN)C(=O)N[C@@H](CCSC)C(=O)N1CCC[C@H]1C(=O)N[C@@H](CS)C(=O)N[C@@H](CC(C)C)C(=O)N[C@@H](CO)C(=O)O [JM #18] (H-ILRWSRKMPCLS-OH; C-terminus assumed)
A. ~70%

* * *

Experiment: Stability of radiolabeled conjugates in buffer (radiochemical purity over time)
Type: physicochemical
Conditions: NH4-acetate buffer pH 5.2, ethanol, room temperature, time point 1 h
Where no end group is shown, it is not given here. [ ]: non-standard residue; d: D form. The star is where a group is joined. DOTA = O=C(O)CN1CCN(CC(=O)O)CCN(CC(=O)*)CCN(CC(=O)O)CC1
The following substances are shown together with reported Radiochemical purity values.
Just the number in %, nothing appended.

Use these answered entries as a reference point.
[[record]]
substance = "[^177Lu]Lu-DOTA-K-JM#29: ^177Lu-labeled DOTA-K-JM #29 (SEQ ID NO.: 165) ([dL]LRWSRKMPCVSK(DOTA); also: 177Lu complex of DOTA)"
readout_unit = "%"
observed_result = 96

[[record]]
substance = "[^177Lu]Lu-DOTA-K-JM#21: ^177Lu-labeled DOTA-K-JM #21 (SEQ ID NO.: 101) (ILRWSRKLPCVSK(DOTA); also: 177Lu chelated)"
readout_unit = "%"
observed_result = 93

[[record]]
substance = "[^177Lu]Lu-DOTA-JM#118: ^177Lu-labeled DOTA-JM #118 (SEQ ID NO.: 166) (ILRWSRK(DOTA)-NH2; also: 177Lu complex of DOTA)"
readout_unit = "%"
observed_result = 98


Next up:
Q. # Radiochemical purity lookup, item [^177Lu]Lu-DOTA-K-JM#122: ^177Lu-labeled DOTA-K-JM #122 (SEQ ID NO.: 102) (ILRWSRKLPSVSK(DOTA); also: 177Lu complex of DOTA)
A. 97
